system: NCI-H2171; assay: cells; assay type: functional, cell-based, Homo sapiens; conditions: Homo sapiens, NCI-H2171;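 also: growth inhibition of human NCI-H2171 cells, read out by a cell viability assay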
Description: SANGER: Inhibition of human NCI-H2171 cell growth in a cell viability assay.

- compound_string: "CC[C@H](CO)Nc1nc(NCc2ccccc2)c2ncn(C(C)C)c2n1"
  IC50: "> 16 µM"
- compound_string: "C#Cc1cccc(Nc2ncnc3cc(OCCOC)c(OCCOC)cc23)c1"
  IC50: "> 2 µM"
- compound_string: "COc1cc(N2CCN(C)CC2)ccc1Nc1ncc2c(n1)N(C)c1ccccc1C(=O)N2C"
  IC50: "> 8 µM"
- compound_string: "COc1cc(-c2nn([C@H]3CC[C@H](N4CCN(C(C)=O)CC4)CC3)c3ncnc(N)c23)ccc1NC(=O)c1cc2ccccc2n1C"
  IC50: "> 5.12 µM"
- compound_string: "OCCCNc1cc(-c2ccnc(Nc3cccc(Cl)c3)n2)ccn1"
  IC50: "> 0.256 µM"

Origin of the recorded values: ChEMBL document CHEMBL1201861
